Experiment: cytotoxicity in PAX8-dependent RMG-1 cells, dose response, cell-based, cherry-pick (AID 687029);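 also: cells exposed to compound for 96 hours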
Setup Conditions: RMG-1 viability, CellTiterGlo ATP luminescence, 96 h; series mostly up to 35 µM
Measured potencies and affinities stand elsewhere. Calls of active or inactive are those of the source.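 The calls were made as follows: active = signal drop whose fitted half-maximal concentration is at most twice the top valid dose, in every test run; inconclusive = mixed calls across runs, poor fit, or flat 30 to 70% inhibition; inactive = wrong direction, flat within 30%, or potency beyond limit.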
Metric Name: activity change, negative = inhibition

1. COc1ccc(S(=O)(=O)Nc2ccc3c(c2)C(=O)N([C@H](C)CO)C[C@@H](C)[C@H](CN(C)S(=O)(=O)c2ccc(Cl)cc2)OCCCC[C@H](C)O3)cc1: inactive
2. O=[N+]([O-])c1ccc2nc(SCc3cn4ccccc4n3)[nH]c2c1: inactive
3. C[C@@H]1CCCCO[C@@H](CN(C)S(=O)(=O)c2ccc(Cl)cc2)[C@H](C)CN([C@H](C)CO)C(=O)c2cc(NS(=O)(=O)c3ccc(Cl)cc3)ccc2O1: inactive
4. COc1ccc(OCc2cccc(C(=O)Nn3cc([N+](=O)[O-])cn3)c2)cc1: inactive
5. O=C(NN=Cc1c(O)ccc2ccccc12)c1ccncc1: inactive
6. C[C@@H]1CN([C@H](C)CO)C(=O)c2cccc(NC(=O)Nc3cccc4ccccc34)c2O[C@@H]1CN(C)S(=O)(=O)c1ccc(Cl)cc1: inactive
7. Cc1cccc(C(=O)Oc2ccc(/C=N/NC(=O)c3ccccc3O)cc2)c1: inactive
8. Nc1ncnc2c(C3OC(CO)C(O)C3O)scc12 (stereo unspecified): inactive
9. C[C@H](CO)N1C[C@H](C)[C@H](CN(C)C(=O)NC2CCCCC2)OCCCC[C@H](C)Oc2ccc(NC(=O)Nc3ccc(C(F)(F)F)cc3)cc2C1=O: inactive
10. O=C(Nc1ccc(C(F)(F)F)cc1)N1C[C@@H]2N[C@H](C1)C2c1ccc(-c2ccccc2)cc1 (stereo partly specified): inactive
11. CCS(=O)(=O)N1Cc2ccccc2CC1C(=O)Nc1nnc(SCc2c(Cl)cccc2Cl)s1 (stereo unspecified): inactive
12. CO[C@H]1CN(C)C(=O)c2cc(NC(=O)c3ccc(-c4ccccc4)cc3)ccc2OC[C@@H](C)NC[C@@H]1C: inactive
13. Cc1cccc(-c2ccc([C@H]3[C@H](CO)N4CCCCN(S(=O)(=O)c5ccccc5C)C[C@@H]34)cc2)c1: inactive
14. C[C@@H]1CCCCO[C@H](CN(C)Cc2ccncc2)[C@H](C)CN([C@@H](C)CO)C(=O)c2cc(NC(=O)Nc3ccc(C(F)(F)F)cc3)ccc2O1: inactive
15. O=C(COC(=O)/C(=C/c1cccs1)c1cccs1)NC(c1ccccc1)c1ccccc1: inactive
16. C[C@@H]1CCCCO[C@@H](CN(C)Cc2ccc(C(F)(F)F)cc2)[C@H](C)CN([C@@H](C)CO)C(=O)c2cc(NC(=O)Nc3ccc(F)cc3)ccc2O1: inactive

----------
Experiment: S. cerevisiae RM11-1a growth modifiers, primary screen, strain RM11-1a, OD600, basal, 24 h (AID 1177);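 also: cultures grown under basal conditions with no added stressor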
Setup Conditions: OD600, 24 h, higher = more signal, called active from +8 up or from −8 down
Metric Name: z-score

1. C=C(C1=CCN(S(=O)(=O)c2ccc(C)cc2)C1)[C@@H](OC(C)=O)[C@@H]1CCCN1S(=O)(=O)c1ccccc1[N+](=O)[O-]: 1.39
2. COCCCNC(=O)[C@@]1(Cc2ccccc2)N=C(c2ccc(OCCCO)cc2)O[C@H]1c1ccccc1N=[N+]=[N-]: 2.42
3. COC(=O)[C@@]1(CCC(=O)OC(C)(C)C)COC(c2ccc(OCCCO)cc2)=N1: -0.612
4. C=C(C(=O)CC[C@H](OC(C)=O)c1ccc(CO)o1)C(C)C: -0.487
5. C=CCC(OC(C)=O)[C@@H]1[C@@H](N(Cc2cccc3ccccc23)C(=O)c2cccc3ccccc23)c2cc(OCCCO)ccc2N1C(=O)Cc1ccc(OC)cc1 (some centres not stated): -1.48
6. C=CCN1C(=O)[C@@]2(O[C@@H](CCn3cc(CCO)nn3)[C@H]([Si](C)(C)c3ccc(OC)cc3)[C@H]2C)c2cc(NC(=O)c3ccc(OC)cc3)ccc21: 0.901
7. CCN(CC)c1ccc(N2CC=CC34O[C@@H]5C=CCOC(=O)[C@@H]5[C@H]3C(=O)N(C(CO)C(C)C)[C@@H]4C2=O)cc1 (some centres not stated): 1.24

----------
Subject Of Test: Pro-neuregulin-1, membrane-bound isoform (Homo sapiens)
Experiment: NRG1 binders on small-molecule microarrays, primary screen, psychiatric disease protein project, biochemical, small-molecule microarray, fluorescence 635/667 (AID 1075);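 also: score combines 667 nm spot fluorescence with signal to noise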
Setup Conditions: NRG1 binding, 635 nm fluorescence, higher = more signal
The entries below come with measured composite z-score values attached.
Metric Name: composite z-score

1) C=CCNC(=O)[C@@H]1[C@H]2C(=O)O[C@H](c3ccccc3)[C@H](c3ccccc3)N2[C@H](c2ccc(O)cc2)[C@@]12C(=O)Nc1ccccc12: 1.31
2) COC(=O)C(CC#Cc1ccc2c(c1)[C@]1(C(=O)N2)[C@H](C(N)=O)[C@H]2C(=O)O[C@H](c3ccccc3)[C@H](c3ccccc3)N2[C@@H]1c1ccc(O)cc1)C(=O)OC: 0.205
3) COCCOC(=O)N1C(=O)[C@@]2(c3cc(C#CC4(O)CCCCCC4)ccc31)[C@H](c1ccccc1OCCO)N1[C@H](c3ccccc3)[C@H](c3ccccc3)OC(=O)[C@H]1[C@@H]2C(=O)Nc1nc2ccccc2s1: 0.41
4) CC(C)C(CO)N1C(=O)[C@@H]2[C@H]3C(=O)OCC=C[C@H]3OC23C=CCN(Cc2ccccc2)C(=O)[C@@H]13 (stereo partly specified): -0.72
5) COC(=O)C(CC#Cc1ccc2c(c1)[C@]1(C(=O)N2)[C@H](c2ccccc2OCCO)N2[C@H](c3ccccc3)[C@H](c3ccccc3)OC(=O)[C@H]2[C@@H]1C(=O)N1CCCCCCC1)C(=O)OC: 2.17
6) O=c1n(-c2ccccc2)c(=O)n2n1CC(COc1ccccc1)=C1[C@@H](CCc3ccccc3)OB(O)C[C@@H]12: 0.97

----------
Subject Of Test: Neurogenic locus notch homolog protein 3 (Homo sapiens) (UniProt Q9UM47)
Sequence (Q9UM47 whole entry, looked up): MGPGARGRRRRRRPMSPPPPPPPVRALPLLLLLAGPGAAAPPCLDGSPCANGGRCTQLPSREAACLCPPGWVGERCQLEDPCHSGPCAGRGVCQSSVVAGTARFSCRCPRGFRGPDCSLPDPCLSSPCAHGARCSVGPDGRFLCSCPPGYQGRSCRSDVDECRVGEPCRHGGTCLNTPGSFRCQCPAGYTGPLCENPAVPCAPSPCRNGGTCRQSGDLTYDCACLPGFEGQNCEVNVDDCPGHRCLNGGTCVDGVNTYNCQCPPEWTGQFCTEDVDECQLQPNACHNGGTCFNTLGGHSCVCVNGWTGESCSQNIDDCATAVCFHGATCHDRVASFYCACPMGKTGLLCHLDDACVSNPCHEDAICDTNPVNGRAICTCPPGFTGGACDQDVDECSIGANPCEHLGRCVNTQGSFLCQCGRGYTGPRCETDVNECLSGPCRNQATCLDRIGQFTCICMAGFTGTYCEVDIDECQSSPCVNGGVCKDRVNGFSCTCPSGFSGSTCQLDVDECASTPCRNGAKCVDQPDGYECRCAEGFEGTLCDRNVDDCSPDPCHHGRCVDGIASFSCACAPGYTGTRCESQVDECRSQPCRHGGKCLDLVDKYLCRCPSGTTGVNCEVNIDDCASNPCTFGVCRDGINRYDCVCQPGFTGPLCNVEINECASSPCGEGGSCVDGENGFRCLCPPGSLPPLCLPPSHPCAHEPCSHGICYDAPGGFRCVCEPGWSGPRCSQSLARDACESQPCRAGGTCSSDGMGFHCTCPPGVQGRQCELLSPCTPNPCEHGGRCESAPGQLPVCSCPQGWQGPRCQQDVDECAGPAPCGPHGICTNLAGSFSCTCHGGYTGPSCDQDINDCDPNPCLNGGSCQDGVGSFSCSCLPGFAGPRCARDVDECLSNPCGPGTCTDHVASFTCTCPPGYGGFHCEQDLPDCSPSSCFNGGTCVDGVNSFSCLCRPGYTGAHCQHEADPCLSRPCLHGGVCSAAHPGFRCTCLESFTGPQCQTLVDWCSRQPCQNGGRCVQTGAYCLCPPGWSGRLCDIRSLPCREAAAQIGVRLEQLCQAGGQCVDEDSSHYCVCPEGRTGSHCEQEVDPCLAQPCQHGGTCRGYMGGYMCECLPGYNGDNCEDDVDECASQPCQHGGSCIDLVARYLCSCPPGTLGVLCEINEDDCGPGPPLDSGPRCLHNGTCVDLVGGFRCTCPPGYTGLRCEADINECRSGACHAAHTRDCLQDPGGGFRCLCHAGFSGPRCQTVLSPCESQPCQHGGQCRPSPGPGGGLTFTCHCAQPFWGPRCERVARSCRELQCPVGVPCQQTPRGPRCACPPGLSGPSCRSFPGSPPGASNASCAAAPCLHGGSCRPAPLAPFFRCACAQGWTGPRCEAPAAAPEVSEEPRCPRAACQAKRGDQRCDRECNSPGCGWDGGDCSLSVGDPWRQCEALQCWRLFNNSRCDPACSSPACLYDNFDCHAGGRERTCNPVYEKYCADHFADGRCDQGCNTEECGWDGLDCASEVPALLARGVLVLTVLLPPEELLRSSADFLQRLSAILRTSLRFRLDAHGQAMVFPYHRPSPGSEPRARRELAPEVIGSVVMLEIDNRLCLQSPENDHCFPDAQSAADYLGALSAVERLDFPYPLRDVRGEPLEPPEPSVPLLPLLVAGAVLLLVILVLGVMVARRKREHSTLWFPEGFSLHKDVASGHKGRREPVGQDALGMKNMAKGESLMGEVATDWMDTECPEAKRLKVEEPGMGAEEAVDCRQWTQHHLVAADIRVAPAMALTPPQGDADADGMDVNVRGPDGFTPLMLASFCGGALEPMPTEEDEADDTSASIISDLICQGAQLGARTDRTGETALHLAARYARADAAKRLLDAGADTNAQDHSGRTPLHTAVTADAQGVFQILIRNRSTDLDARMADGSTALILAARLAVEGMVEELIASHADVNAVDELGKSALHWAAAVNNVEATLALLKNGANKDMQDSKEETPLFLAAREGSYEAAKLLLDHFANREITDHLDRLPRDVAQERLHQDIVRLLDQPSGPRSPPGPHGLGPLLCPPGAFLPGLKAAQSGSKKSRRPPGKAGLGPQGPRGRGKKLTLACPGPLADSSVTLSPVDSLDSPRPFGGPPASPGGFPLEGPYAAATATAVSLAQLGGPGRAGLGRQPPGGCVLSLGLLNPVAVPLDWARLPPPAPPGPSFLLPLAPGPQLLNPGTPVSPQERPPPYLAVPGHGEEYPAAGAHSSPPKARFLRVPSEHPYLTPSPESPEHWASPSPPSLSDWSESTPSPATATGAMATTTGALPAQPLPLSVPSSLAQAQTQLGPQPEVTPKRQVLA
Experiment: NOTCH3 binders on small-molecule microarray, primary screen, biochemical, 635/667 nm fluorescence (AID 1096)
Setup Conditions: NOTCH3 binding, 635 nm fluorescence, higher = more signal
// reported composite z-score for each item listed
Metric Name: composite z-score

1) CCCCC(=C=CC[C@@H](O)c1ccc(OCCO)cc1)C[C@@H](O)c1cc(Cl)cc(Cl)c1O: -0.174
2) COCCOC(=O)N1C(=O)[C@@]2(c3cc(C#CC4(O)CCCCCC4)ccc31)[C@H](c1ccc(O)cc1)N1[C@H](c3ccccc3)[C@H](c3ccccc3)OC(=O)[C@H]1[C@@H]2C(N)=O: 0.928
3) CC(C)C[C@@H]1NC(=O)[C@@]23C(=O)N[C@@H](Cc4ccccc4)C2[C@H](C)[C@@]2(C)O[C@H]2C3/C=C/C/C=C\CNC(=O)[C@H](Cc2ccccc2)NC1=O (some centres undefined): 0.414
4) O=C(NCC(F)(F)F)[C@@H]1c2ccccc2C(=O)N(C2Cc3ccccc3C2)[C@H]1c1ccc(CO)cc1: -0.844
5) O=c1n(-c2ccccc2)c(=O)n2n1CC(COc1ccccc1)=C1[C@@H](CCc3ccccc3)OB(O)C[C@@H]12: 1.03
6) CO[C@H]1O[C@H](CO)[C@@H](OC(=O)Nc2ccccc2)[C@H](OC(=O)Nc2ccccc2-c2ccccc2)[C@@H]1OC(=O)Nc1ccccc1-c1ccccc1: 1.06
7) COc1ccc(C#Cc2ccc3c(c2)[C@]2(C(=O)N3)[C@H](c3ccc(O)cc3)N3[C@H](c4ccccc4)[C@H](c4ccccc4)OC(=O)[C@H]3[C@@H]2C(N)=O)cc1: -0.854
8) C=CCC(OC(C)=O)[C@@H]1[C@@H](N(Cc2cccc3ccccc23)C(=O)c2cccc3ccccc23)c2cc(OCCCO)ccc2N1C(=O)Cc1ccc(OC)cc1 (some centres undefined): 0.171
9) C=C(COC)/C(=C/C[C@H](OC(C)=O)c1ccc(CO)o1)c1cnc2ccccc2c1: 1.04
10) CC(C)C[C@@H]1NC(=O)[C@H]2C[C@@H](C(=O)NCCCC[N+](C)(C)C)[C@@H](c3cccc(OCCO)c3)N2C1=O: 1.03
11) COc1ccc([Si](C)(C)[C@@H]2[C@@H](CCn3cc(CCO)nn3)O[C@]3(C(=O)N(Cc4ccc(N5C(=O)c6cccc7cccc5c67)cc4)c4ccccc43)[C@H]2C)cc1: 0.802
12) O=C(O)[C@H]1C[C@H]2C(=O)N[C@@H](Cc3ccccc3)C(=O)N2[C@H]1c1ccc(O)cc1: 0.321
13) C#CCN1C(C(=O)OCC)OC[C@H]1c1ccccc1 (some centres undefined): 0.804
14) CC(C)(C)OC(=O)CC[C@@]12N=C(c3ccc(OCCCO)cc3)O[C@@H]1c1ccccc1CN(Cc1ccccc1)C2=O: 0.981
15) Cc1ccc(S[C@]2(C(=O)NC3CC3)CC(=O)N(Cc3ccccc3C(F)(F)F)[C@@H]2c2ccc(CO)cc2I)cc1: -0.654
16) CC(C)C[C@@H]1NC(=O)[C@@H]2C[C@H](C(=O)NCCCCCNC(=O)CS)[C@H](c3cccc(OCCO)c3)N2C1=O: 1.06
17) CC(C)(C)OC(=O)CC[C@]1(C(=O)NCc2ccccc2)N=C(c2ccc(OCCCO)cc2)O[C@H]1c1ccccc1N=[N+]=[N-]: 1.02
18) C=CC[C@@]1(C(=O)NCc2ccccc2)N=C(c2ccc(OCCCO)cc2)O[C@@H]1c1ccccc1: 0.311
19) COc1ccc([Si](C)(C)[C@H]2[C@H](CC(=O)N(CCO)Cc3ccccc3)O[C@@]3(C(=O)N(Cc4cccc(N5C(=O)COc6ccccc65)c4)c4ccccc43)[C@@H]2C)cc1: 0.496
20) COCCCNC(=O)[C@@]1(CCS(=O)(=O)c2ccccc2)N=C(c2ccc(OCCCO)cc2)O[C@H]1c1ccccc1CN=[N+]=[N-]: 1.07
21) O=C(NCc1ccccc1)[C@@H]1c2ccccc2C(=O)N(Cc2ccccc2Cl)[C@H]1c1ccc(CO)cc1: 1.05
22) COC(=O)C1=CC(c2ccc(CO)cc2)=CC(c2cccs2)N(C)C=C1C(=O)OC (centres undefined): 0.302
23) CC(C)[Si](C#C[Si](C(C)C)(C(C)C)C(C)C)(O[C@H](C)c1cn([C@H](C)c2ccccc2)nn1)C(C)C: 0.987
24) C=CC[C@]1(C(=O)N(C)C)N=C(c2ccc(OCCCO)cc2)O[C@H]1c1ccccc1CN=[N+]=[N-]: 0.893
25) C=C[C@H](OC)[C@@H](OC(=O)Nc1ccc(OC)cc1)c1ccc(OC)c(O)c1: -0.805
26) CC(C)(C)OC(=O)CC[C@@]1(C(=O)NCc2ccccc2)N=C(c2ccc(OCCCO)cc2)O[C@@H]1c1ccccc1CN=[N+]=[N-]: 1.14
27) CC(C)CNC(=O)[C@@H]1c2ccccc2C(=O)N(Cc2ccc(OC(F)(F)F)cc2)[C@H]1c1ccc(CO)cc1: 1.04
28) CCOC(=O)C[C@H]1[C@H](OC(=O)c2ccc(-c3ccccc3)cc2)[C@@H](NC(=O)c2ccccc2)c2cc(OCCCO)ccc2N1C(=O)c1ccccc1: 0.526
29) [N-]=[N+]=NCc1ccccc1C[C@]1(C(=O)NCc2ccccc2)N=C(c2ccc(OCCCO)cc2)O[C@H]1c1ccccc1: 0.224
